Origin of the recorded values: patent US20250032525A1

test system: panel of cell lines of various tissue of origin; assay: In vitro cytotoxicity, panel of cell lines (PrestoBlue); type: cell-based, human; details: Homo sapiens; average IC50 within the breast group; read-out: Cytotoxic IC50, av. breast
endpoint: IC50 (nM)
Lab book: enter the figure in nM, no units written.

Requested field: IC50. Item: COc1cccc2c1C(=O)c1c(O)c3c(c(O)c1C2=O)C[C@@](O)(C(C)=O)C[C@@H]3O[C@H]1C[C@H]2[C@H](OC3CCCN32)[C@H](C)O1 (stereo partly shown) [PyDau, 2-deamino-2-pyrrolino-daunorubicin]
3.23

* * *

test system: NCI-60 cell lines; assay: NCI DTP NCI-60 cell line screen database (sulforhodamine B), panel; assay type: cell-based; conditions: Homo sapiens, read-out: Cytotoxic IC50, av. melanoma
Property: IC50; scope: individual compounds
Lab book: enter the figure in nM, no units written.

COc1cccc2c1C(=O)c1c(O)c3c(c(O)c1C2=O)C[C@@](O)(C(=O)CO)C[C@@H]3O[C@H]1C[C@H](N)[C@H](O)[C@H](C)O1 [DOX, doxorubicin] ... 177

Note: attention shifts to another entry.
Requested field: IC50. Item: COc1cccc2c1C(=O)c1c(O)c3c(c(O)c1C2=O)C[C@@](O)(C(C)=O)C[C@@H]3O[C@H]1C[C@H](N)[C@H](O)[C@H](C)O1 [Dau, daunorubicin]
113
